# Assay Target: T1, CAPRIN-1 protein on the cell surface of human cancer cells (human, UniProt Q14444 2-709)
# T1 construct: whole, on cells; endogenous protein of human cancer cell lines
# T1 sequence (looked up): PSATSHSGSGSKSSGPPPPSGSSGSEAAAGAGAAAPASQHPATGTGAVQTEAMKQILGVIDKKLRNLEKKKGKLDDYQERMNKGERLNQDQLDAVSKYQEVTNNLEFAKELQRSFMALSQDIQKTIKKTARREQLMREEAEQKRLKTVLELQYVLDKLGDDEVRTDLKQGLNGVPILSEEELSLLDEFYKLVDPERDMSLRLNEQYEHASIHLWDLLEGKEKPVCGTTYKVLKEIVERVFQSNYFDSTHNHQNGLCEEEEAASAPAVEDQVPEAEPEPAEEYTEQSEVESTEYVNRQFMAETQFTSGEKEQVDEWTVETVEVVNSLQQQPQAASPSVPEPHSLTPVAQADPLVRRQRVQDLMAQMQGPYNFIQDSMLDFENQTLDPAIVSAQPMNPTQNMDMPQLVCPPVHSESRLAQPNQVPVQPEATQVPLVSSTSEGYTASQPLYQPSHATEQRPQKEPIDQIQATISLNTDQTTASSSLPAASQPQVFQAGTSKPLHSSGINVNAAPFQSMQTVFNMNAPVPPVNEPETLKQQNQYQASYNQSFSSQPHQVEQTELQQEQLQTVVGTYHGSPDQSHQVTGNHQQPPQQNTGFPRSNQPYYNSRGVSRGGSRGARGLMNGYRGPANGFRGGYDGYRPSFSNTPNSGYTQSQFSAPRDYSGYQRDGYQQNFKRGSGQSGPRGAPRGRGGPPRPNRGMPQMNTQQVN
# Assay Comment: flow cytometry on Hep3B, HepG2, SK-Hep-1, SW480; culture supernatant; vs isotype control
Field: rate of increase in mean fluorescence intensity. Provide a value for each of the binders that follow.

These solved cases illustrate the format of a correct answer.
>>> value_measured("mouse monoclonal antibody #14 (antibody, V domains shown, mouse hybridoma antibody) VH: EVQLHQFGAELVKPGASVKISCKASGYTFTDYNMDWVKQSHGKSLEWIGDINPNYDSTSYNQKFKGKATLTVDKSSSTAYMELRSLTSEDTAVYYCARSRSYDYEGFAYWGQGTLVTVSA VL: DIQLTQSPASLSASVGETVTITCRASGNIHNYLAWYQQKQGKSPQLLVYNAKTLADGVPSRFSGSGSGTQYSLKINSLQPEDFGSYYCQHFWSTLTFGGGTKLEIK")
"≥ 20%"
>>> value_measured("mouse-chicken chimeric antibody #3 (antibody, mouse IgG1, V domains shown) VH: AVTLDESGGGLQTPGGALSLVCKASGFTFSGYDMLWVRQAPGKGLEWVAGIGSTGGGTDYGAAVKGRATISRDNGQSTVRLQLNNLRAEDTATYYCAKVAGGCNSGYCRDSPGSIDAWGHGTEVIVS VL: AVTQQPASVSANPGETVKITCSGGGSRNYYGWYQQKSPGSVPVTVIYYDDQRPSNIPSRFSGALSGSTSTLTITGVQADDEAVYFCGSADSNTYEGSFGAGTTLTVL")
"≥ 20%"

Now for the binder whose rate of increase in mean fluorescence intensity we want.
// query Quick one: rate of increase in mean fluorescence intensity for mouse monoclonal antibody #5 (antibody, V domains shown, mouse hybridoma antibody) VH: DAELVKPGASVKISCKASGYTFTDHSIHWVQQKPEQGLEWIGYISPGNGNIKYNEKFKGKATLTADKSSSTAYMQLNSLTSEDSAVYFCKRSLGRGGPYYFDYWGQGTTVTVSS VL: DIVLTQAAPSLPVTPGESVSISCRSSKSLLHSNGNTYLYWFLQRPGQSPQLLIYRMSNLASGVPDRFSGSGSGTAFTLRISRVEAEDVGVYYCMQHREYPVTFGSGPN ?
// result ≥ 20%
